This collection of values is drawn from ChEMBL document CHEMBL3988442.

Give pIC50 for every item shown.
# TARGET_OR_TEST_SYSTEM: Histidine--tRNA ligase (Trypanosoma cruzi (strain CL Brener))
# Sequence (Q4DA54 whole entry): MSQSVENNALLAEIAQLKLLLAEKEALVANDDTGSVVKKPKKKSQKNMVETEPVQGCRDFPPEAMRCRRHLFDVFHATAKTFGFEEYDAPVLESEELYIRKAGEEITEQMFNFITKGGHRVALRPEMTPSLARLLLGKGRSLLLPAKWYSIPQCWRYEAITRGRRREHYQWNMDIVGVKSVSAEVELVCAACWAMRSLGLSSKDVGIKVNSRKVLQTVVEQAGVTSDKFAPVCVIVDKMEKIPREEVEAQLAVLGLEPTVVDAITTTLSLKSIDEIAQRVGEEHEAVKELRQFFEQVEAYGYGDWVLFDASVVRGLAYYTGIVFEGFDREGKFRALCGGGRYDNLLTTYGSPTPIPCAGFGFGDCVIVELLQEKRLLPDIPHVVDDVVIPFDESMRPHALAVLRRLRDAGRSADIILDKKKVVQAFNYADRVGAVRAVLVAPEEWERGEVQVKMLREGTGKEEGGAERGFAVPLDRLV
# METHOD_DESCRIPTION: Trypanosoma cruzi histidyl tRNA synthetase (Tc-HisRS)
pIC50: −log10 of the molar value.

Short answer for "O=C1N(CC2CC2)CCC12CCN(c1ncccn1)CC2" : pIC50 was < 4.00

Short answer for "CC(C)(O)CCc1cccc(C(=O)NCc2nccs2)c1" : pIC50 was < 4.00

Short answer for "CCCn1cc(NC(=O)c2ccc(N(C)CC)cc2)ccc1=O" : pIC50 was < 4.00

Short answer for Cc1ccc(N2CCCC3(COCCN(c4nccs4)C3)C2)nn1 (configuration not stated) : pIC50 was < 4.00

Short answer for Cc1cc(CNC2CCCN(c3cccnn3)C2)no1 (configuration not stated) : pIC50 was < 4.00

Short answer for "c1ccc(CNc2ncc(CN3CC[C@H]4CC[C@@H](C3)N4)cn2)cc1" : pIC50 was < 4.00

Short answer for Cc1noc(C)c1CN(C)CC1CCCN1c1cccnn1 (configuration not stated) : pIC50 was < 4.00

Short answer for "CC(C)(O)CCc1cccc(C(=O)NCc2cnn3cccnc23)c1" : pIC50 was < 4.00

Short answer for Cc1nc2ccccc2nc1CN(C)C1CCCN(c2cccnn2)C1 (configuration not stated) : pIC50 was < 4.00

Short answer for "O=C(O)c1cncc(Cc2cccc(F)c2)c1" : pIC50 was < 4.00

Short answer for Cc1ccc(N2CCCC3(COCCN(c4ncccn4)C3)C2)nn1 (configuration not stated) : pIC50 was < 4.00

Short answer for NCC1Cc2cccc(-c3nccc(N4CCC(O)CC4)n3)c2O1 (configuration not stated) : pIC50 was < 4.00

* * *

# METHOD_DESCRIPTION: microbe, parasite or virus in culture
# TEST_CONTEXT: Mycobacterium tuberculosis, 96 h, read-out: pIC50 (converted)
MEASUREMENT_LABEL: IC50

Short answer for "CCOc1nn(CC)cc1-c1nnc(SCc2ccccn2)n1C" : IC50 was > 50.1 µM

Short answer for "NS(=O)(=O)N1CCN(CC=Cc2ccc(F)cc2)CC1" : IC50 was > 501 µM

Short answer for COc1ccc2c(c1)OCC(CNC(=O)CN(C)C)C2 (configuration not stated) : IC50 was > 501 µM

Short answer for CC1CCCN(c2cc(CNS(C)(=O)=O)ccn2)C1 (configuration not stated) : IC50 was 277 µM

Short answer for "CN(Cc1nnc(C2CC2)o1)Cc1ccccc1-c1ccccc1" : IC50 was > 50.1 µM

Short answer for "CCS(=O)(=O)c1ccc(CNc2ncccc2Cl)cc1" : IC50 was > 501 µM

Short answer for CC(C)C(NC(=O)c1cnc(N2CCOCC2)nc1)c1cccs1 (configuration not stated) : IC50 was 48.9 µM

Short answer for CCCOc1cccc(NC(=O)C(C)n2cncn2)c1 (configuration not stated) : IC50 was 331 µM

Short answer for "O=C(c1c[nH]c2ccccc2c1=O)N1CCSCC1" : IC50 was > 50.1 µM

Short answer for "Cc1ccc(S(=O)(=O)NCCN)cc1C(F)(F)F" : IC50 was > 501 µM

Short answer for "CCn1cncc1CNc1ccc(-c2nc(CC(C)C)no2)cn1" : IC50 was 5.92 µM

Short answer for CCN1CCCC1CNC(=O)c1cccc(C)n1 (configuration not stated) : IC50 was > 501 µM

Short answer for CCC(C)CNc1ccc2oc(COC)nc2c1 (configuration not stated) : IC50 was 34.4 µM

Short answer for "NC(=O)CC1CCN(C(=O)Cc2ccc(Cl)cc2)CC1" : IC50 was > 501 µM

Short answer for "O=C1Nc2ccccc2NC12CCN(c1cccc(C(F)(F)F)n1)CC2" : IC50 was > 50.1 µM

Short answer for "O=C1CCN(Cc2cc(Br)cc3cccnc23)CCN1" : IC50 was > 501 µM

Short answer for CCC(CO)Nc1ncc(C(F)(F)F)cc1Cl (configuration not stated) : IC50 was > 501 µM

Short answer for "COc1ccc([C@@H]2C[C@H](NC(C)=O)C[C@H](Cc3ccccc3)O2)cn1" : IC50 was 28.3 µM

Short answer for "CN(Cc1ccsc1)C(=O)CNC(=O)c1ccc(Br)o1" : IC50 was 164 µM

Short answer for "CNCC(=O)NCCc1c(OC)ccc2ccccc12" : IC50 was > 501 µM

Short answer for "COc1cc(Cl)ccc1CN" : IC50 was 279 µM

Short answer for Cc1cc2c(cc1CNC(Cc1cccs1)c1nccs1)OCO2 (configuration not stated) : IC50 was > 50.1 µM

Short answer for CCN(C(=O)CCCOC)C(c1ccc(Cl)cc1)c1ccccn1 (configuration not stated) : IC50 was > 50.1 µM

Short answer for N#Cc1cccc(N2CCCC(CO)(Cc3ccccc3F)C2)n1 (configuration not stated) : IC50 was > 50.1 µM

Short answer for "N#CCc1ccc(CN)cc1" : IC50 was 135 µM

Short answer for "Cc1ccc2oc(N3CCNCC3)nc2c1" : IC50 was > 501 µM

Short answer for "CN1CCN(C(=O)c2cc3c(F)cccc3s2)CC1" : IC50 was > 501 µM
